- TEST SYSTEM: Dual specificity protein kinase CLK3 (Homo sapiens, UniProt P49761); note: in the data inactive means no Kd found up to 30 µM
- Sequence (P49761 whole entry): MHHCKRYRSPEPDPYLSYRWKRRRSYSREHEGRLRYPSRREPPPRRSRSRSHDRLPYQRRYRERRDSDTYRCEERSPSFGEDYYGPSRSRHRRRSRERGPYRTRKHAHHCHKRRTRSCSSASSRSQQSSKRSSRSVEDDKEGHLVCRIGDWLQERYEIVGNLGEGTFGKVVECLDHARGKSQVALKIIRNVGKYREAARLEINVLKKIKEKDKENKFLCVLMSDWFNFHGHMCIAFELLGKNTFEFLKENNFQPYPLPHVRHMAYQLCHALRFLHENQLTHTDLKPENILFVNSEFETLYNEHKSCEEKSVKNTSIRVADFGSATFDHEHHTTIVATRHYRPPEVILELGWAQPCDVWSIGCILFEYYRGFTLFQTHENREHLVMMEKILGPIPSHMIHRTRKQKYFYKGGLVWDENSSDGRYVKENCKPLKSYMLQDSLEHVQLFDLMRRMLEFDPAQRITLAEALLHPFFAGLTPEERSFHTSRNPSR
- Assay type: subcellular, K-562, COLO 205, SK-N-BE(2) and MV-4-11, Cell lysate
- REPORTED CONDITIONS: read-out: Kd apparent; note: in the data inactive means no Kd found up to 30 µM
The source made the active and inactive calls.
Tick one outcome: active, inactive

Exam item: Would you mind telling me which call this test gave CCNC(=O)C#Cc1ccc2c(c1)NC(=O)/C2=C(\Nc1ccc(CN(C)C)cc1)c1ccccc1 ?
Marked response: inactive

Exam item: Identify the outcome logged in this assay for the compound shown: O=C1NC(=O)[C@@H](c2cn3c4c(cccc24)CCC3)[C@@H]1c1c[nH]c2ccccc12 [TIVANTINIB]
Marked response: inactive

Exam item: Tell me the recorded outcome of this test for NC(=O)Nc1cc(-c2cccc(F)c2)sc1C(=O)N[C@H]1CCCNC1 .
Marked response: inactive

Exam item: Dear colleague, could you share the recorded outcome for CNC(=O)c1cc(Oc2ccc(NC(=O)Nc3cc(C(C)(C)C)nn3-c3ccc4ncccc4c3)c(F)c2)ccn1 when you have a moment?
Marked response: inactive

Exam item: Would you mind telling me which call this test gave O=C(Nc1cc(C(F)(F)F)cc(C(F)(F)F)c1)c1cc(Cl)ccc1O ?
Marked response: inactive

Exam item: Test call for this compound, please: O=C(Nc1c[nH]nc1-c1nc2cc(CN3CCOCC3)ccc2[nH]1)NC1CC1
Marked response: inactive

Exam item: Hi team, can someone confirm the assay call for COc1c(OCCCN2CCOCC2)ccc2c1N=C(NC(=O)c1cnc(N)nc1)N1CCN=C21 ?
Marked response: inactive

Exam item: Call for entry Cc1[nH]c(/C=C2\C(=O)Nc3ccccc32)c(C)c1CCC(=O)O [ORANTINIB] :
Marked response: inactive

Exam item: Dear all, I need the recorded test outcome for CC(C)(C)c1nc(-c2cccc(NS(=O)(=O)c3c(F)cccc3F)c2F)c(-c2ccnc(N)n2)s1 , thank you.
Marked response: inactive

Exam item: For this compound, state the assay outcome: Cc1csc(-c2nnc(Nc3ccc(Oc4ncccc4-c4ccnc(N)n4)cc3)c3ccccc23)c1
Marked response: active

Exam item: Per the assay record, what outcome was assigned to COc1ccc(S(=O)(=O)N(C(C)=O)c2ccccc2/C=C/c2cc[n+]([O-])cc2)cc1 ?
Marked response: inactive

Exam item: Would you mind telling me which call this test gave Cn1cc(-c2cnc3ccc4ccc(CS(=O)(=O)NCc5ccccn5)cc4c(=O)c3c2)cn1 ?
Marked response: inactive

Exam item: In this assay, the call recorded for C#Cc1cccc(Nc2ncnc3cc(OC)c(OCCCCCCC(=O)NO)cc23)c1 was what?
Marked response: inactive

Exam item: Which outcome was entered for the compound CO[C@H]1C[C@@H]2CC[C@@H](C)[C@@](O)(O2)C(=O)C(=O)N2CCCC[C@H]2C(=O)O[C@H]([C@H](C)C[C@@H]2CC[C@@H](O)[C@H](OC)C2)CC(=O)[C@H](C)/C=C(\C)[C@@H](O)[C@@H](OC)C(=O)[C@H](C)C[C@H](C)/C=C/C=C/C=C/1C in this test?
Marked response: inactive

Exam item: // return assay outcome for Cc1nc(Nc2n[nH]c3c2CN(C(=O)N[C@H](CN(C)C)c2ccccc2)C3(C)C)c2sccc2n1
Marked response: inactive

Exam item: Could you kindly confirm the outcome this assay logged for CN1CCN(CCOc2cc(OC3CCOCC3)c3c(Nc4c(Cl)ccc5c4OCO5)ncnc3c2)CC1 ?
Marked response: inactive

Exam item: Hi, do you know how Cc1cc(C(=O)NOCCO)c(Nc2ccc(I)cc2F)n(C)c1=O came out in this test?
Marked response: inactive

Exam item: Recorded test outcome, item N#CC1(c2ccc(NC(=O)c3cccnc3NCc3ccncc3)cc2)CCCC1
Marked response: inactive

Exam item: Name the outcome recorded for CNC(=O)c1nn(C)c2c1C(C)(C)Cc1cnc(Nc3ccc(N4CCN(C)CC4)cc3)nc1-2 in the assay.
Marked response: inactive

----------
Target sequence: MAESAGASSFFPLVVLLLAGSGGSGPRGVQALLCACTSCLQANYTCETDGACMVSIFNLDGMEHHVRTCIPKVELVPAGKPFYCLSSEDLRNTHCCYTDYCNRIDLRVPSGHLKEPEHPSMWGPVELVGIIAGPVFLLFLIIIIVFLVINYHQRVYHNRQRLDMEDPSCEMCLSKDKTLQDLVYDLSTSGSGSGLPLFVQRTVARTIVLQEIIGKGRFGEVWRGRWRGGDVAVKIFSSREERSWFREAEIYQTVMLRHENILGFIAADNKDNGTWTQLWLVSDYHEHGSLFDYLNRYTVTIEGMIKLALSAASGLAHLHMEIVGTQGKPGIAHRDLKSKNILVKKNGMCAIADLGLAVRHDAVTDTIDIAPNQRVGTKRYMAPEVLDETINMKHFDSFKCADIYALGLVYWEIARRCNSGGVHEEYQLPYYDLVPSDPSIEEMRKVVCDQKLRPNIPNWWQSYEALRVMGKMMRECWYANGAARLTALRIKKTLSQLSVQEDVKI
Structures can show the parent of a compound that is named as a salt. The source made the active and inactive calls.
Pick one: 1 (yes) (active), 0 (no) (inactive)

Exam item: Field: outcome | Entry: O=c1[nH]ccc2cc(OC3CCNCC3)ccc12 [SAR-407899 FREE BASE]
Marked response: 0 (no)

Exam item: I'd appreciate the recorded outcome for Cc1nc(NC(=O)N2CCC[C@H]2C(N)=O)sc1-c1ccnc(C(C)(C)C(F)(F)F)c1 [ALPELISIB] from this test.
Marked response: 0 (no)

Exam item: Please indicate how the test categorized Cc1cnc(NC(=O)Nc2cc(Br)c(C)cc2OC[C@@H]2CNCCO2)cn1 [RABUSERTIB] .
Marked response: 0 (no)

Exam item: What was the test verdict on CC(C)c1cc(CNc2nc(Nc3cc(C4CC4)[nH]n3)cc(N3CCN(C)CC3)n2)on1 [XL-228] ?
Marked response: 0 (no)

Exam item: Which outcome was assigned to Cc1nc2cc(-n3ncc(C(=O)c4cc5ccccc5[nH]4)c3N)ccc2[nH]1 [FGFR INHIBITOR DEBIO 1347] in this test?
Marked response: 0 (no)

Exam item: Write down the call the test reported for this compound. Item: Cc1[nH]c(/C=C2\C(=O)Nc3ccccc32)c(C)c1CCC(=O)O [ORANTINIB]
Marked response: 0 (no)

Exam item: What did this assay record as the result for Cc1nc(Nc2n[nH]c3c2CN(C(=O)N[C@H](CN(C)C)c2ccccc2)C3(C)C)c2sccc2n1 [PF-03758309] ?
Marked response: 0 (no)

Exam item: Per the records of this test, what outcome belongs to C=CC(=O)Nc1cc2c(Nc3ccc(F)c(Cl)c3)ncnc2cc1C#CC(C)(C)N1CCN(C)CC1 [AV-412 FREE BASE] ?
Marked response: 0 (no)

Exam item: Dear all, I need the recorded test outcome for COc1cc(Nc2ncc3c(n2)-c2ccc(Cl)cc2C(c2c(F)cccc2OC)=NC3)ccc1C(=O)O [ALISERTIB] , thank you.
Marked response: 0 (no)

Exam item: Check the results log: what was the call for COc1ncc(-c2ccc3nccc(-c4ccnnc4)c3c2)cc1NS(=O)(=O)c1ccc(F)cc1F [OMIPALISIB] ?
Marked response: 0 (no)

Exam item: What did this assay record as the result for Cc1cc(Nc2ncnc3ccc(NC4=NC(C)(C)CO4)cc23)ccc1Oc1ccn2ncnc2c1 [TUCATINIB] ?
Marked response: 0 (no)

Exam item: How was Cn1cc(-c2cnn3c(N)c(Br)c([C@@H]4CCCNC4)nc23)cn1 [SCH-900776] classified in this test?
Marked response: 0 (no)

Exam item: For Cc1csc(-c2nnc(Nc3ccc(Oc4ncccc4-c4ccnc(N)n4)cc3)c3ccccc23)c1 [AMG-900] , which call appears in the assay record?
Marked response: 0 (no)

Exam item: Record lookup: outcome of this test for CCS(=O)(=O)N1CCN(c2ccc(Nc3ncc(C(N)=O)c(NC4CC4)n3)cc2)CC1 [Cerdulatinib Hydrochloride] ?
Marked response: 0 (no)

Exam item: Status in this test for CN(C[C@@H]1COCCO1)S(=O)(=O)Nc1ccc2ccc3ncc(-c4cnn(C)c4)cc3c(=O)c2c1 [MK-2461] ?
Marked response: 0 (no)

Exam item: Please let me know the test result on file for CO[C@H]1C[C@@H]2CC[C@@H](C)[C@@](O)(O2)C(=O)C(=O)N2CCCC[C@H]2C(=O)O[C@H]([C@H](C)C[C@@H]2CC[C@@H](OC(=O)C(C)(CO)CO)[C@H](OC)C2)CC(=O)[C@H](C)/C=C(\C)[C@@H](O)[C@@H](OC)C(=O)[C@H](C)C[C@H](C)/C=C/C=C/C=C/1C [TEMSIROLIMUS] .
Marked response: 0 (no)

Exam item: Dear all, I need the recorded test outcome for C#Cc1cccc(Nc2ncnc3cc(OC)c(OCCCCCCC(=O)NO)cc23)c1 [CUDC-101] , thank you.
Marked response: 0 (no)

Exam item: Please share the test call associated with CCn1cc(-c2ccnc3[nH]c(-c4cccc(CN(C)C)c4)cc23)c(-c2ccc(NC(=O)N(C)C)cc2)n1 [GSK-1070916] .
Marked response: 1 (yes)

Exam item: Please indicate how the test categorized O=C(Nc1c[nH]nc1-c1nc2cc(CN3CCOCC3)ccc2[nH]1)NC1CC1 [AT-9283] .
Marked response: 1 (yes)

Exam item: Which result was noted for this compound in the test: O=C(Cc1ccc(-c2ccc(OCCN3CCOCC3)cc2)cn1)NCc1ccccc1 [TIRBANIBULIN]
Marked response: 0 (no)

Exam item: Short answer needed: outcome of this test for Nc1ncnc2c1c(-c1cccc(OCc3ccccc3)c1)cn2[C@H]1C[C@@H](CN2CCC2)C1 [AEW-541] ?
Marked response: 0 (no)

Exam item: State the result this test recorded for CO[C@H]1C[C@@H]2CC[C@@H](C)[C@@](O)(O2)C(=O)C(=O)N2CCCC[C@H]2C(=O)O[C@H]([C@H](C)C[C@@H]2CC[C@@H](O)[C@H](OC)C2)CC(=O)[C@H](C)/C=C(\C)[C@@H](O)[C@@H](OC)C(=O)[C@H](C)C[C@H](C)/C=C/C=C/C=C/1C [SIROLIMUS] .
Marked response: 0 (no)

Exam item: Given COc1c(OCCCN2CCOCC2)ccc2c1N=C(NC(=O)c1cnc(N)nc1)N1CCN=C21 [COPANLISIB] , state the outcome it received in this test.
Marked response: 0 (no)

Exam item: Give the logged outcome of this assay for the following compound: FC(F)(F)c1ccc(/C=C/c2nc(COc3ccc(CCCCn4ccnn4)cc3)co2)cc1 [MUBRITINIB]
Marked response: 0 (no)

Exam item: Test call, this compound: CN1CCN(CCOc2cc(OC3CCOCC3)c3c(Nc4c(Cl)ccc5c4OCO5)ncnc3c2)CC1 [SARACATINIB]
Marked response: 1 (yes)

Exam item: Record lookup: outcome of this test for C=CC(=O)N1CCC[C@H](n2c(=O)n(-c3ccc(Oc4ccccc4)cc3)c3c(N)ncnc32)C1 ?
Marked response: 0 (no)

Exam item: Per the assay record, what outcome was assigned to Cc1cccc(-c2nn3c(c2-c2ccnc4ccc(C(N)=O)cc24)CCC3)n1 [GALUNISERTIB] ?
Marked response: 1 (yes)

Exam item: Recorded test outcome, item CN1C/C=C/CCOc2cccc(c2)-c2ccnc(n2)Nc2cccc(c2)C1 [ZOTIRACICLIB]
Marked response: 0 (no)

Exam item: Dear colleague, could you share the recorded outcome for O=C(Nc1nc2cccc(-c3ccc(CN4CCS(=O)(=O)CC4)cc3)n2n1)C1CC1 [FILGOTINIB] when you have a moment?
Marked response: 0 (no)
